This section presents molecules with their documented melting point values.

Examples from the recorded data:
{"columns": ["MOLECULE", "VALUE OBSERVED"],
 "data": [
  ["O=C(O)c1ccc2[nH]c(-c3ccc(O)cc3O)nc2c1", "> 300 °C"],
  ["COc1ccc(C2N[C@H](C(=O)O)CS2)c(OC)c1 (mixture of isomers)", "137.7 to 139.2 °C"],
  ["Oc1cc(O)cc(-c2nc3ccccc3s2)c1 [Compound 21, 5-(benzo[d]thiazol-2-yl)benzene-1,3-diol]", "274.5 to 276.5 °C"]
]}

Prompt: Answer with the recorded melting point of COc1ccc(-c2nc3cc(Cl)ccc3s2)cc1O only.
Completion: 158.2 to 158.6 °C

Prompt: Given COc1cc(C2Nc3cc(Cl)ccc3S2)cc(OC)c1O (stereo not drawn) , respond with its melting point.
Completion: 155.8 to 158.6 °C

Prompt: Quickly give me recorded melting point for c1ccc(COc2cccc(-c3nc4ccccc4s3)c2)cc1 [Compound 110, 2-(3-(benzyloxy)phenyl)benzo[d]thiazole]
Completion: 121.5 to 122.1 °C

Prompt: Give recorded melting point. COc1ccc(-c2nc3cc(C(F)(F)F)ccc3s2)cc1
Completion: 128.8 to 130.1 °C

Prompt: Report melting point, nothing else, for this molecule: O=C(O)c1ccc2[nH]c(-c3ccc(O)cc3)nc2c1
Completion: > 300 °C

Prompt: Using the record for COc1ccc(-c2nc3cc(C(F)(F)F)ccc3s2)cc1O , state its measured melting point.
Completion: 142.1 to 144.5 °C

Prompt: Read the entry COc1ccc(-c2nc3cc(C(F)(F)F)ccc3s2)c(OC)c1 and write its reported melting point.
Completion: 140.4 to 141.6 °C

Prompt: Determine from records and report melting point for COc1ccc(-c2nc3ccccc3s2)c(OC)c1 [Compound 22, 2-(2,4-dimethoxyphenyl)benzo[d]thiazole]
Completion: 137.4 to 138.9 °C

Prompt: Look up and report measured melting point for this entry: Oc1ccc(-c2nc3cc(C(F)(F)F)ccc3s2)cc1
Completion: 187.2 to 188.9 °C

Prompt: Respond only with melting point recorded for COc1ccc(C2N[C@H](C(=O)O)CS2)cc1OC (mixture of isomers)
Completion: 173.6 to 175.4 °C

Prompt: Respond only with melting point recorded for COc1ccc(-c2nc3cc(C(F)(F)F)ccc3s2)cc1OC
Completion: 120.4 to 121.6 °C

Prompt: Provide only the value of recorded melting point for Oc1ccc(-c2nc3cc(C(F)(F)F)ccc3s2)c(O)c1
Completion: 236.2 to 238.2 °C

Prompt: Note down melting point recorded for CCOc1cc(-c2nc3cc(Cl)ccc3s2)ccc1O
Completion: 102.1 to 103.4 °C

Prompt: Input COc1ccc(-c2nc3ccccc3s2)cc1OC [Compound 20, 2-(3,4-dimethoxyphenyl)benzo[d]thiazole] , output reported melting point.
Completion: 135 to 137.2 °C

Prompt: Please list melting point recorded for the molecule COc1cc(-c2nc3ccccc3s2)cc(OC)c1OC
Completion: 149.5 to 151.1 °C
